# TARGET_ENTITY: pKA (plasma kallikrein) (Homo sapiens)
# Sequence (P03952 391-638 limits assumed): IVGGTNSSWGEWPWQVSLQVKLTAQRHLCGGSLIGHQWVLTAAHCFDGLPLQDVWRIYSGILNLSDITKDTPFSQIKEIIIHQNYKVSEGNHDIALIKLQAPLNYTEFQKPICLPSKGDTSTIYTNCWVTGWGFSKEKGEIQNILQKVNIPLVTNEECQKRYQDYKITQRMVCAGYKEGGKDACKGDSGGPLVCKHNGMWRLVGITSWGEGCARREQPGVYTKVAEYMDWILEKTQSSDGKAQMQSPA
# Sequence (P03952 20-390 limits assumed): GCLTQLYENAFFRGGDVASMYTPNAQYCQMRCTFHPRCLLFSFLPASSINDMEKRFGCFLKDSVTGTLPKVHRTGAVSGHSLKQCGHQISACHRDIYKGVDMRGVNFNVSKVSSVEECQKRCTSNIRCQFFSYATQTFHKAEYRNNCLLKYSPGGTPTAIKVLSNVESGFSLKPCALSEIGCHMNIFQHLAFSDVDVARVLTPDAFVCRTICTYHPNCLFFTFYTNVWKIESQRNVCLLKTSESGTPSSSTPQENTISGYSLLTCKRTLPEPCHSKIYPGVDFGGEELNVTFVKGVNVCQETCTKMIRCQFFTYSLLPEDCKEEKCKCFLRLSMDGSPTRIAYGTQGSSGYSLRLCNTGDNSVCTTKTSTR
# TEST: biochemical
pKi: −log10 of the molar value. Bridge positions count the residues as written; N and C are the ends. Ends that are not written are not given here.
OBSERVATION_TYPE: pKi

Exercise: Return reported pKi; argument: MHSFCAFKADDGHCKANHQRFFFNIFTRQCEEFSYGGCGGNQNRFESLEECKKMCTRD (disulfide 5-55, 14-38, 30-51) [KKII/3#6]
Solution: > 9.30
